Biological target: T1, E. coli-expressed recombinant cynomolgus IL-13 (cynomolgus, UniProt Q5I6E4 21-132 (Macaca thibetana entry))
T1 construct: also called cyno IL13 (CA); cIL-13
T1 chain: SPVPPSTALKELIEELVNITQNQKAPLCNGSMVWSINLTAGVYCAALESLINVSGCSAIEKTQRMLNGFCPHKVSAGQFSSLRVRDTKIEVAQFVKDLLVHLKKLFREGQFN
Experiment: BIAcore analysis 1, antibody captured, IL-13 in solution
Measured Metric: kon (M⁻¹ s⁻¹)
# output: bare number, implied unit M⁻¹ s⁻¹

The cases that follow already have their kon on record.
# Binder, kon [M⁻¹ s⁻¹]
data = [
    ("L2+A1 (antibody, human IgG1, kappa, V domains shown, Humanised 6A1, VH construct A1 and VL construct L2; also called A1L2) VH: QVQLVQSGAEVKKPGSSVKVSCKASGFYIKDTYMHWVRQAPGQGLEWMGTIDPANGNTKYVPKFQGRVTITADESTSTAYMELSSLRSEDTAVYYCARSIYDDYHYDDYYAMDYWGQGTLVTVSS VL: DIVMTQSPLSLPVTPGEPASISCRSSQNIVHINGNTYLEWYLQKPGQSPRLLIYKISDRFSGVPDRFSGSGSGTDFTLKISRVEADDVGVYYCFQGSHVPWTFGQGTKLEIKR", 577000),
    ("L1+A1 (antibody, human IgG1, kappa, V domains shown, Humanised 6A1, VH construct A1 and VL construct L1, human gamma1 wild type / kappa constant regions; also called A1L1; humanised anti-IL-13 mAb L1+A1) VH: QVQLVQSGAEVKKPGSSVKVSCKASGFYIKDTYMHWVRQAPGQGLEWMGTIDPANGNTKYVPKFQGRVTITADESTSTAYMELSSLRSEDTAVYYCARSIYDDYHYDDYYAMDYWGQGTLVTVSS VL: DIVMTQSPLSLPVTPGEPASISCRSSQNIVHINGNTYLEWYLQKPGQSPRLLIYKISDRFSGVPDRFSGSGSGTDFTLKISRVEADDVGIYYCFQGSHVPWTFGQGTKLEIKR", 446000),
    ("chimaeric 6A1 (antibody, human IgG1, V domains shown, Parent murine 6A1 V regions on human IgG1/k wild type C regions, expressed in CHO cells; also called 6A1c; 6A1 chimaeric antibody) VH: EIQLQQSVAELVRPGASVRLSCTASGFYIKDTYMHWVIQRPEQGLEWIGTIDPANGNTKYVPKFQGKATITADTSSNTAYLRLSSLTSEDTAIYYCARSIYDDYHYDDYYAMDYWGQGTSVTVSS VL: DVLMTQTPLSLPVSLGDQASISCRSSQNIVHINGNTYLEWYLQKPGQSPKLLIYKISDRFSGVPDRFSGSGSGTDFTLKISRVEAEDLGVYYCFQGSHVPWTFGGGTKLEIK", 592000),
]

Here is another binder to look at.
**Query** Dear colleague, I am looking for the recorded kon of the following binder: monoclonal antibody 6A1 (antibody, IgG1, V domains shown, also called 6A1 parental mAb; parental mouse mAb 6A1) VH: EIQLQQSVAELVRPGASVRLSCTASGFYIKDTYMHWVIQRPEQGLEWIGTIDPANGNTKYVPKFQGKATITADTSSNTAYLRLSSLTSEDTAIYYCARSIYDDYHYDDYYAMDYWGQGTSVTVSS VL: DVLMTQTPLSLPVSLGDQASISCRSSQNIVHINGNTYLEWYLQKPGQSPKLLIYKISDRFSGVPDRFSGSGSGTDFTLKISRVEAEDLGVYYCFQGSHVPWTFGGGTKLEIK
**Result** 914000
